# Test protocol: NCI Yeast Anticancer Drug Screen. Data for the mlh1 rad18 strain (AID 175)
# Experimental setup: S. cerevisiae mlh1 rad18 strain growth inhibition; at 5.0 µM (retest, dose inferred, filed as 0.5)
Compounds without any hit were thinned out: in the full panel of roughly 79,000, 15% have a hit. Active and inactive are the calls of the source. Rule as the data show it: active = growth inhibition above about 70%; inactive = the rest.
Possible outcomes: 1.0 = active, 0.0 = inactive

>>> class("C=CCNC(=S)N/N=C(/c1ccccn1)C(C)C")
0.0
>>> class("Clc1ccccc1/C=C/c1ccccn1")
0.0
>>> class("CC(=O)N1CC(C)CC2OC3(CCC4C5CCC6CC(O)CCC6(C)C5C(=O)C4C3C)C(C)C21 (centres undefined)")
0.0
>>> class("C=CC1(NC(=O)c2ccccc2)CCC(C(C)(C)C)CC1 (centres undefined)")
0.0
>>> class("O=C(c1ccc([N+](=O)[O-])cc1)c1[nH]c2ccccc2c(=O)c1-c1ccccc1")
0.0
>>> class("O=C(N/C(=C\\c1ccc(Br)cc1)c1nc2ccccc2[nH]1)c1ccccc1")
0.0
>>> class("C/C(=N\\NC(=S)Nc1ccc(C(=O)O)cc1C)c1ccc2ccccc2n1")
0.0
>>> class("Oc1cc(O)c2c(c1)OC(c1ccc(O)c(O)c1)C(OC1(c3cc(O)c(O)c(O)c3)Oc3cc(O)cc(O)c3C(O)C1O)C2 (centres undefined)")
0.0
>>> class("CCOP(=O)(OCC)/C(C#N)=C/c1coc2cc(C)cc(C)c2c1=O")
0.0
>>> class("CC[N-]c1nncs1.CC[N-]c1nncs1.CC[N-]c1nncs1.CC[N-]c1nncs1.[Cl][Rh][Cl]")
0.0
>>> class("O=S1CCS(=O)C1c1ccccc1 (centres undefined)")
0.0
>>> class("O=S(=O)(O)c1ccc2c(c1)C1C(C3C2C2(Cl)C(Cl)=C(Cl)C3(Cl)C2(Cl)Cl)C2(Cl)C(Cl)=C(Cl)C1(Cl)C2(Cl)Cl (centres undefined)")
0.0
>>> class("COc1ccc(N=N/N=c2\\sc3cc(Cl)ccc3n2C)cc1")
0.0
>>> class("[N-]=[N+]=Nc1c([N+](=O)[O-])c(Cl)nc2ccccc12")
0.0
>>> class("O=c1cc2cccccc-2cc1O")
0.0
>>> class("CCc1[nH]c2ccccc2c1C(c1c(CC)[nH]c2ccccc12)C1CCCCC1=O (centres undefined)")
0.0
>>> class("N#C/C(=C/c1cc(I)cc(I)c1O)C(N)=O")
0.0
>>> class("CN(C)CC/C(=N\\Nc1ccc([N+](=O)[O-])cc1)c1ccccc1")
0.0
>>> class("O=C(/C=C/c1cccc2ccccc12)c1cccc([N+](=O)[O-])c1")
0.0
>>> class("COc1ccc2c(c1)CCCN2CCCCCCCCCN1CCCCC1")
0.0
>>> class("O=S1(=O)c2ccccc2C(=NO)c2ccccc21")
0.0
>>> class("COc1ccc(C2=NN(c3ccccc3)C[N+](c3ccc(OC)cc3)=N2)cc1")
0.0
>>> class("O=c1[nH]cnc2nc(I)[nH]c12")
0.0
>>> class("C[n+]1cc2c3ccccc3ccc2c2ccccc21")
0.0
>>> class("COC1OC(CBr)C(OC(c2ccccc2)(c2ccccc2)c2ccccc2)C(OC(c2ccccc2)(c2ccccc2)c2ccccc2)C1OC(c1ccccc1)(c1ccccc1)c1ccccc1 (centres undefined)")
0.0
>>> class("Cc1[nH]c(=O)[nH]c(=S)c1C(=O)NC1C2CCCCC2NC2CCCCC21 (centres undefined)")
0.0
>>> class("CCCCCCCCCCCCNC(=O)c1cc[n+](Cc2ccc(Cl)c(Cl)c2)cc1")
1.0
>>> class("COc1ccccc1CN1CCCN(Cc2ccccc2OC)C1c1ccccc1F")
0.0
>>> class("C/C(=N\\OC(=O)c1ccccc1)[N+](=O)[O-]")
0.0
>>> class("O=C(O)c1ccc(NC(c2ccccc2)c2ccc3cccnc3c2O)cc1 (centres undefined)")
0.0
>>> class("c1ccc(B2OC(c3ccccc3)C(c3ccccc3)O2)cc1 (centres undefined)")
0.0
>>> class("O=P(N=P(c1ccccc1)(c1ccccc1)c1ccccc1)(c1ccccc1)c1ccccc1")
1.0
>>> class("C/C(=N/NC(=S)Nc1ccccc1Cl)c1ccccn1")
0.0
>>> class("Cc1cccc(C)c1NC(=O)CSC(N)=O")
0.0
>>> class("CN(Cc1cc(C(C)(C)C)cc(Br)c1O)Cc1cc(C(C)(C)C)cc(Br)c1O")
0.0
>>> class("O=S(=O)(Nc1nccs1)c1ccc(N=Cc2cn(Cc3ccccc3)c3ccccc23)cc1")
0.0
>>> class("CCCCCCCCCCN")
0.0
>>> class("CCCCCCC(/C=C/c1c(Cl)cccc1Cl)=N\\O")
0.0
>>> class("CC(=O)c1ccc2c(c1)CC1(C2)Cc2cc3c(c(C(=O)O)c2C1)CCC3 (centres undefined)")
0.0
>>> class("BrC(Br)=C1C(=C(Br)Br)C(Br)C1Br (centres undefined)")
0.0
>>> class("Cc1ccc(Cc2nc(=S)[nH][nH]2)cc1")
0.0
>>> class("Cc1ccc(C)c(N2C/C(=N\\NC(=O)CC#N)C(c3nc4ccccc4s3)C(=O)C2=O)c1 (centres undefined)")
0.0
>>> class("O=[N+]([O-])c1ccc(/C(=C\\c2ccccc2)Cn2ccnc2)cc1")
1.0
>>> class("CC(=O)OC1CCCCCCCCCCC12OCCO2 (centres undefined)")
0.0

---

# Test protocol: NCI Yeast Anticancer Drug Screen. Data for the sgs1 mgt1 strain (AID 161);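 also: 0% = growth of cultures given vehicle only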
# Experimental setup: S. cerevisiae sgs1 mgt1 strain, at 50.0 µM (retest, dose inferred, filed as 5.0), stronger effect = higher value
Compounds without any hit were thinned out: in the full panel of roughly 79,000, 15% have a hit.
Entries and their growth inhibition
Value kind: growth inhibition (%)

>>> reported_value("NC(N)=Nc1ccc(C(=O)Oc2c(Cl)cc([N+](=O)[O-])cc2Cl)cc1")
65
>>> reported_value("CCC(c1ccc(OC)cc1)C(O)(CC)c1ccc(OC)cc1 (stereo not given)")
98
>>> reported_value("O=C1C(=O)c2ccccc2C(O)=C1C(c1ccccc1)c1ccccc1")
91
>>> reported_value("CC(=O)Nc1ccc(C(=O)NN2C(=O)C(Cl)C2c2cc(Br)cc(Br)c2O)cc1 (stereo not given)")
-7
>>> reported_value("COc1ccc2c(c1)c(=O)c1c(NCCN(C)C)ccc3nnn2c31")
4
>>> reported_value("CC[C@H](CC[C@@H](C)C1CC[C@H]2[C@@H]3CCC4=CC(=O)CC[C@]4(C)[C@H]3CC[C@]12C)C(C)C (stereo not given in full)")
68
>>> reported_value("Cc1nc(Nc2ccc(Cl)cc2)sc1C(=O)NNc1ccc([N+](=O)[O-])cc1[N+](=O)[O-]")
-6
>>> reported_value("BrC(Br)([P+](c1ccccc1)(c1ccccc1)c1ccccc1)[P+](c1ccccc1)(c1ccccc1)c1ccccc1")
61
>>> reported_value("CC(O)CC(O)CC1CCCO1 (stereo not given)")
4
>>> reported_value("CC(=O)OCCC1=CCC2CC1C2(C)C (stereo not given)")
4

---

# Test protocol: NCI Yeast Anticancer Drug Screen. Data for the bub3 strain (AID 167)
# Experimental setup: S. cerevisiae bub3 mutant strain, at 50.0 µM, stronger effect = higher value
About 79,000 compounds went through this panel and 15% of them were active in at least one assay; those are over-represented in the sample as a whole.
So basically: growth inhibition at 90% or higher? That is yes (1). Lower than 90%? That is no (0).

>>> class("COc1ccccc1NC(c1ccccc1)c1ccc2cccnc2c1O (stereo not given)")
"no (0)"
>>> class("O=C(CC(O)(C(F)(F)F)C(F)(F)F)C(c1ccccc1)C(O)(C(F)(F)F)C(F)(F)F (stereo not given)")
"no (0)"
>>> class("NC(=O)c1cccn1Cc1ccccc1SSc1ccccc1Cn1cccc1C(N)=O")
"yes (1)"

---

# Test protocol: NCI Yeast Anticancer Drug Screen. Data for the mec2-1 strain (AID 157)
# Experimental setup: S. cerevisiae mec2-1 strain, at 50.0 µM, stronger effect = higher value
About 79,000 compounds went through this panel and 15% of them were active in at least one assay; those are over-represented in the sample as a whole.
Entries and their growth inhibition
Value kind: growth inhibition (%)

>>> reported_value("O=Cc1ccc(-c2nccc3c2[nH]c2ccccc23)o1")
26.9
>>> reported_value("C/C(CC(O)(C(F)(F)F)C(F)(F)F)=N/Nc1ccc([N+](=O)[O-])cc1[N+](=O)[O-]")
99.5
>>> reported_value("CCCCCCCCCCCCNCCNCCN")
89.7
>>> reported_value("COc1ccc(C2c3cc4c(cc3OC(N3CCCC3)C2C)OCO4)c(OC)c1 (stereo unspecified)")
94.2
>>> reported_value("Nc1ncnc2c1c(-c1ccccc1)cn2-c1ccc(Br)cc1")
21.7
>>> reported_value("O=[N+]([O-])c1cc(Cl)cc2c1nc(NCCO)c1ccccc12")
45.2
>>> reported_value("COC(=O)c1ccccc1CC1Cc2cccc(C)c2C1=O (stereo unspecified)")
51
>>> reported_value("CC(=O)O/C=C1\\c2ccccc2CCC1c1ccc2ccccc2c1 (stereo unspecified)")
-23.9
>>> reported_value("CCOC(=O)c1cc2c(nc1NCc1ccc(OC)c(OC)c1)/C(=C/c1ccccc1)CCCC2")
88.8
>>> reported_value("CCCCc1c(O)c(N=NC(=O)C[n+]2ccccc2)c2ccccc2c1O")
11.6
>>> reported_value("CN(C)CC(CN(C)C)C(=O)c1ccc(Oc2ccc(Cl)cc2)cc1")
52.3
>>> reported_value("O=C(NCCN1CCCC1)c1cn2c(ccc3sc4ccccc4c(=O)c32)n1")
49.6
>>> reported_value("CC(C)(C)NCc1cc(C(C)(C)C)cc(-c2ccc(Cl)cc2)c1O")
88.4
>>> reported_value("CCCOC1=C(Cl)C(=O)c2cccc([N+](=O)[O-])c2C1=O")
99.5
>>> reported_value("COc1cc(CSc2ccc(O)cc2)cc(OC)c1OC")
84.3
>>> reported_value("N#Cc1ncc(Cl)cc1[N+](=O)[O-]")
99.7
>>> reported_value("CCN(CC)CCCNc1cc(C)nc2c1ccc1c2ccc2c(NCCCN(CC)CC)cc(C)nc21")
97.8
>>> reported_value("O=S(=O)(c1ccccc1)n1cc(C[P+](c2ccccc2)(c2ccccc2)c2ccccc2)c2ccccc21")
99.5
>>> reported_value("NC1CCCCC1N.O=C([O-])c1ccc(N=Nc2cccc([N+](=O)[O-])c2)cc1O.O=C([O-])c1ccc(N=Nc2cccc([N+](=O)[O-])c2)cc1O.[Pt+4]")
-2.45
>>> reported_value("C=CC1(C)CCC2C(=CCC3C(C)(C(=O)O)CCCC23C)C1 (stereo unspecified) (tested in a mixture with another compound)")
74.2
>>> reported_value("CC(=O)c1c(O)c(C)c(O)c2c1OC1=CC(=O)c3c(C)noc3C12C (stereo unspecified)")
26.1
